Some molecules, each annotated with its measured growth inhibition.
- assay.comment: NCI Yeast Anticancer Drug Screen. Data for the rad50 strain (AID 155);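 also: 0% = growth of vehicle-only cultures of the same strain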
- experimental.conditions: S. cerevisiae rad50 strain growth inhibition; at 50.0 µM; stronger effect = higher value
Compounds without any hit were thinned out: in the full panel of roughly 79,000, 15% have a hit.
The answer is to be given in %; state only the numeric part.

Examples with their reported growth inhibition follow.
COc1cc(C(=O)O)cc(O)c1OC    4.95
COC(=O)C1=C(C)N(NC(N)=O)C(C)(O)C12CCOC2=O (configuration not stated)    -3.8
O=C(Oc1ccccc1)C(Cc1ccccc1)NC(=O)C(F)(F)F (configuration not stated)    4.6
CN1CCCC1    2.05
CN(C)S(=O)(=O)c1cccc2ccccc12    3.35

input: Endpoint output: growth inhibition of COC(=O)/C=C(\C)CC(O)/C=C(\C)CCC=C(C)C (configuration not stated) . Value?
output: 21.1

input: Also O=C1C(CCCS)C(c2ccccc2)=NN1c1ccccc1 (configuration not stated) , if possible.
output: 54.9

====

Some compounds, each annotated with its measured growth inhibition.
- assay.comment: NCI Yeast Anticancer Drug Screen. Data for the bub3 strain (AID 167)
- experimental.conditions: S. cerevisiae bub3 mutant strain, at 50.0 µM, stronger effect = higher value
Compounds without any hit were thinned out: in the full panel of roughly 79,000, 15% have a hit. Active and inactive are the calls of the source. Cut-off read from the data, not from the text of the source: active = growth inhibition above about 70%; inactive = the rest.

Examples with their reported growth inhibition follow.
CC1=CC2(C)OC3C(=O)N(c4ccc(Cl)cc4)C(=O)C3C2N=C1 (configuration not stated)    -20.1% (inactive)
Cc1cccc(C)c1NC(=S)/N=C/C1=C(O)c2ccccc2C1=O    -7.5% (inactive)
CNC(=O)N(Cl)c1ccc(Cl)cc1    7.45% (inactive)
CCCCCCCC(=O)C(C)C    9.6% (inactive)
CCOC(=O)NN(C(=O)OCC)C(C(=O)c1ccccc1)N(NC(=O)OCC)C(=O)OCC    20.9% (inactive)

input: Endpoint output: growth inhibition of C=CC(C)(C)C1=CC(=O)C(OC)=CC1=O . Value?
output: 4.15% (inactive)

input: Also CCC(C)(C(=O)O)c1ccccc1 (configuration not stated) , if possible.
output: -42.5% (inactive)

input: Also N#C/C(=C\c1ccco1)C(=O)c1ccco1 , if possible.
output: 38.7% (inactive)

input: Also C=CCSc1ccc(Cl)cc1[N+](=O)[O-] , if possible.
output: 4% (inactive)

input: Also NC(=S)N/N=C/c1ccccc1S(=O)(=O)O , if possible.
output: 0.05% (inactive)

input: Also C=CCN1C(=O)CC2[C@@H]3CCc4cc(O)ccc4C3CC[C@]2(C)C1=O (some centres not stated) , if possible.
output: 8% (inactive)

input: Also O=C1C2=C(CCCC2)Nc2cccc3ncn1c23 , if possible.
output: -38.4% (inactive)

====

- assay.comment: NCI Yeast Anticancer Drug Screen. Data for the bub3 strain (AID 167)
- experimental.conditions: S. cerevisiae bub3 mutant strain, at 50.0 µM, stronger effect = higher value
Compounds without any hit were thinned out: in the full panel of roughly 79,000, 15% have a hit.
assay.endpoint: growth inhibition (%)
The answer is to be given in %; state only the numeric part.

Examples with their reported growth inhibition follow.
O=c1c2n[nH]nc2nc2n1CC(c1ccccc1)S2 (configuration not stated)    -16.2
CC(=O)OC1C(C)OC(n2cnc3c(=O)[nH]cnc32)C1OC(C)=O (configuration not stated)    -2
CCOC(=O)C(CC)(C(=O)OCC)C(C)CC (configuration not stated)    -7.55
CCCC[n+]1cccc(C(=O)c2ccccc2)c1    2.35
O=C(Nc1cccc([N+](=O)[O-])c1)Nc1ccccc1F    19.2

// moving on: another record for growth inhibition
input: Endpoint output: growth inhibition of Cc1cc(C(=O)O)ccc1C(=O)O . Value?
output: -20.4

Reference source: PubChem BioAssay (NCI)
